Value source: patent US12084479B2

# Experiment: Protease resistance assay (serum stability), SDS-PAGE and Green Angel staining
# Format: in vitro ADME
# Condition label: 5% bovine serum, 37° C., read-out: peptide no longer detectable by staining with Green Angel on SDS-PAGE
Where no end group is shown, it is not given here.
Value kind: metabolised at 3 h

Sequence input	Result
TVVRRRGRSPRRRTPSPRRRRSQSPRRRRSQSRESQC [L-HBcARD]	> 80%
